biological target: Serine/threonine-protein kinase pim-1 (Homo sapiens, UniProt P11309); assay: Inhibition of human recombinant Pim1 expressed in Escherichia coli using histone H1 as substrate incubated for 30 mins in presence of ATP by scintillation counting method
Sequence (P11309 whole entry): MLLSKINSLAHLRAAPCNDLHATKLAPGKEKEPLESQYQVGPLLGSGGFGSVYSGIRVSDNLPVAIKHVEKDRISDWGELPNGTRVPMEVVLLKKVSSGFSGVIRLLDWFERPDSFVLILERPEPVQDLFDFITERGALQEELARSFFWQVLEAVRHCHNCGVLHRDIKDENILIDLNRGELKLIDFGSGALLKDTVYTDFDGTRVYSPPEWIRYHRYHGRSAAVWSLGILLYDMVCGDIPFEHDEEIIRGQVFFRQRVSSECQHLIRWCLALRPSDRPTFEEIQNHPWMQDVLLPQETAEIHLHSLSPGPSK
In this section we review reported IC50 values for a set of molecules.
observable: IC50 (µM)

> print(dat)
                       smiles.representation  observable  units  censor.symbol  reported.result
 1  CN1C(=O)/C(=C/c2ccc3c(c2)OCO3)N=C1Nc1ccccc1        IC50     µM              ≥               10
 2      O=C1NC(Nc2ccccc2)=N/C1=C\c1ccc(F)cc1        IC50     µM              >               10
 3  CN(C1=N/C(=C\c2ccc3c(c2)OCO3)C(=O)N1)c1ccccc1        IC50     µM              =                2
 4  O=C1NC(Nc2ccccc2)=N/C1=C\c1ccc2c(c1)OCCO2        IC50     µM              =                1
 5     CCSC1=N/C(=C\c2ccc3c(c2)OCO3)C(=O)N1C        IC50     µM              =              2.1
 6  O=C1NC(Nc2ccc(O)cc2)=N/C1=C\c1ccc2c(c1)OCO2        IC50     µM              =              1.1
 7  CN1CCN(c2ccc(NC3=N/C(=C\c4ccc5c(c4)OCO5)C(=O)N3)cc2)CC1        IC50     µM              =              1.1
 8  O=C1NC(Nc2ccc(F)cc2)=N/C1=C\c1ccc2c(c1)OCO2        IC50     µM              =              9.3
 9     COc1cccc(/C=C2\N=C(Nc3ccccc3)NC2=O)c1        IC50     µM              =              3.1
10   O=C1NC(N2CCOCC2)=N/C1=C\c1ccc2c(c1)OCO2        IC50     µM              =              2.4
11  CN1CCN(c2ccc(NC3=N/C(=C\C4=COc5ccccc5O4)C(=O)N3)cc2)CC1        IC50     µM              =             0.51

====

molecular target: Dual specificity tyrosine-phosphorylation-regulated kinase 3 (Homo sapiens); assay: Inhibition of GST-fused human recombinant DYRK3 expressed in Escherichia coli using GRSRSRSRSRSR peptide as substrate incubated for 30 mins in presence of ATP by scintillation counting method
Sequence (O43781 whole entry, the tested form may be a part): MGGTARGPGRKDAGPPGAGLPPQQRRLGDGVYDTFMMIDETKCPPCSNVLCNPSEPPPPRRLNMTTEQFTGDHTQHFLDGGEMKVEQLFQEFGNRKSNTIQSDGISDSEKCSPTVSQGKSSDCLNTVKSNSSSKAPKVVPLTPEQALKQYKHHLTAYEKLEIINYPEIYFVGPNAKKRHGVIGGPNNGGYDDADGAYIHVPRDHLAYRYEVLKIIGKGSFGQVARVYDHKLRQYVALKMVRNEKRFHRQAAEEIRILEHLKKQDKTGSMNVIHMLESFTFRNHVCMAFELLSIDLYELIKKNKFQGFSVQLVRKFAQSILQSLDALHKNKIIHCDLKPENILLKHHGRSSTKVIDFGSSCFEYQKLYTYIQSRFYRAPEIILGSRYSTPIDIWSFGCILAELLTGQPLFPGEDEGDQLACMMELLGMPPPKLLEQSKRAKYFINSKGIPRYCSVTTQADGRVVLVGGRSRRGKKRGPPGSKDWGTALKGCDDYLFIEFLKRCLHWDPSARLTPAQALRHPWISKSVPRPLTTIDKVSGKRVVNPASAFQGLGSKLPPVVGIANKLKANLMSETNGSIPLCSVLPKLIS
Labelling: IC50 reported below 1000 nM becomes 1; at or above becomes -1.

> print(dat)
                       smiles.representation  label.class
 1  O=C1NC(Nc2ccc(F)cc2)=N/C1=C\c1ccc2c(c1)OCO2            1
 2    O=C1NC(N2CCCC2)=N/C1=C\c1ccc2c(c1)OCO2            1
 3     CCSC1=N/C(=C\c2ccc3c(c2)OCO3)C(=O)N1C            1
 4  Cc1ccc(NC2=N/C(=C\c3ccc4c(c3)OCO4)C(=O)N2)cc1C           -1
 5     COc1ccc(/C=C2\N=C(Nc3ccccc3)NC2=O)cc1           -1
 6     CCCNC1=N/C(=C\c2ccc3c(c2)OCO3)C(=O)N1            1
 7       CN1C(=O)/C(=C/c2ccc3c(c2)OCO3)N=C1N           -1
 8  O=C1NC(N2CCC(N3CCCCC3)CC2)=N/C1=C\c1ccc2c(c1)OCO2           -1
 9   O=C1NC(Nc2ccccc2)=N/C1=C\c1ccc(O)c(O)c1           -1
10  CN1CCN(c2ccc(NC3=N/C(=C\C4=COc5ccccc5O4)C(=O)N3)cc2)CC1            1
11  O=C1NC(Nc2ccc(N3CCNCC3)cc2)=N/C1=C\c1ccc2c(c1)OC=CO2           -1

These measurements were taken from ChEMBL document CHEMBL5126517.
